- study_system: rabbit duodenal smooth muscle strip (Oryctolagus cuniculus, UniProt G1T803)
- Sequence (G1T803 1-400): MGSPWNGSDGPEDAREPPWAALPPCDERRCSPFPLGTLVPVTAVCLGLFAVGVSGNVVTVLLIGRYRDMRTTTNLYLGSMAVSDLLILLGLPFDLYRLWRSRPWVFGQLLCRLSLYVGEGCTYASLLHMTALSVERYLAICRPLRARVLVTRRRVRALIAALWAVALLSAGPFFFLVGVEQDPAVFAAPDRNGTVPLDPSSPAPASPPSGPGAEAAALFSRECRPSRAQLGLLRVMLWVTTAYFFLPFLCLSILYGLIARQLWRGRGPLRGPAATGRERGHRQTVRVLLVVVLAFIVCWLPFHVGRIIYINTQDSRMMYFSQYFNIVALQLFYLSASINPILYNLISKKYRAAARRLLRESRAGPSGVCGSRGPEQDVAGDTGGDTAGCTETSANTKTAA
- assay_name: Rabbit duodenal smooth muscle strip tissue bath assay (contractility)
- Type: cell-based
- reported_conditions: negative logarithm of dose giving 50% of maximal response to motilin; isotonic contraction of rabbit duodenum segments
Positions of bridges follow the written chain, without caps; N, C: chain ends. Non-standard residues stand in square brackets, D forms with d. Residues, ends and D or L forms follow the SMILES beside them. *: point of attachment. X1 = C[N+](C)(C)[C@@H](Cc1ccccc1)C(=O)*; NMeF = CN[C@@H](Cc1ccccc1)C(=O)O
observation_type: pEC50
One number for each entry.

Consider the following illustrative entries.
{"compound": "CC[C@H](C)[C@H](NC(=O)[C@@H]1CCCN1C(=O)[C@@H](NC(=O)[C@H](Cc1ccccc1)[N+](C)(C)C)C(C)C)C(=O)N[C@@H](Cc1ccccc1)C(=O)N[C@H](C(=O)N[C@@H](Cc1ccc(O)cc1)C(=O)NCC(=O)N[C@@H](CCC(=O)O)C(=O)N[C@H]1CCC(=O)NCCCC[C@@H](C(N)=O)NC(=O)[C@H](CC(C)C)NC(=O)[C@H](CCCNC(=N)N)NC(=O)[C@H](CCC(N)=O)NC1=O)[C@@H](C)O [SEQ ID NO:14] (X1-VPIFTYGEEQRLK-NH2; lactam 9-13)", "study_system": "rabbit duodenal smooth muscle strip (Oryctolagus cuniculus, UniProt G1T803)", "pEC50": 7.38}
{"compound": "CC[C@H](C)[C@H](NC(=O)[C@@H]1CCCN1C(=O)[C@@H](NC(=O)[C@H](Cc1ccccc1)NC)C(C)C)C(=O)N[C@@H](Cc1ccccc1)C(=O)N[C@H](C(=O)N[C@@H](Cc1ccc(O)cc1)C(=O)NCC(=O)N[C@@H](CCC(=O)O)C(=O)N[C@H]1CC(=O)NCCCC[C@@H](C(=O)N[C@H](CCCCN)C(N)=O)NC(=O)[C@H](CC(C)C)NC(=O)[C@H](CCCNC(=N)N)NC(=O)[C@H](C)NC1=O)[C@@H](C)O [SEQ ID NO:9] (H-[NMeF]VPIFTYGEDARLK[dK]-NH2; lactam 10-14)", "study_system": "rabbit duodenal smooth muscle strip (Oryctolagus cuniculus, UniProt G1T803)", "pEC50": 7.89}
{"compound": "CC[C@H](C)[C@H](NC(=O)[C@@H]1CCCN1C(=O)[C@@H](NC(=O)[C@H](Cc1ccccc1)[N+](C)(C)C)C(C)C)C(=O)N[C@@H](Cc1ccccc1)C(=O)N[C@H](C(=O)N[C@@H](Cc1ccc(O)cc1)C(=O)NCC(=O)N[C@@H](CCC(=O)O)C(=O)N[C@H]1CCC(=O)NCCCC[C@@H](C(=O)N[C@@H](CCCCN)C(N)=O)NC(=O)[C@H](CC(C)C)NC(=O)[C@@H](CCCNC(=N)N)NC(=O)[C@H](C)NC1=O)[C@@H](C)O [SEQ ID NO:20] (X1-VPIFTYGEEA[dR]LKK-NH2; lactam 9-13)", "study_system": "rabbit duodenal smooth muscle strip (Oryctolagus cuniculus, UniProt G1T803)", "pEC50": 7.34}

Entry CC[C@H](C)[C@H](NC(=O)[C@@H]1CCCN1C(=O)[C@@H](NC(=O)[C@H](Cc1ccccc1)NC)C(C)C)C(=O)N[C@@H](Cc1ccccc1)C(=O)N[C@H](C(=O)N[C@@H](Cc1ccc(O)cc1)C(=O)NCC(=O)N[C@@H](CCC(=O)O)C(=O)N[C@H]1CCC(=O)NCCCC[C@@H](C(=O)N[C@@H](CCCCN)C(N)=O)NC(=O)[C@H](CC(C)C)NC(=O)[C@H](CCCNC(=N)N)NC(=O)[C@H](C)NC1=O)[C@@H](C)O [SEQ ID NO:10] (H-[NMeF]VPIFTYGEEARLKK-NH2; lactam 10-14) , rabbit duodenal smooth muscle strip (Oryctolagus cuniculus, UniProt G1T803) data, pEC50 value: 7.96
